Reported values of IC50 for individual entries
target: Recombinant JAK2 (Homo sapiens); construct: purchased Carna Biosciences; test: JAK biochemical assay (LANCE Ultra TR-FRET), JAK2; settings: recombinant JAK2, TR-FRET; read-out: Biochemical Assay (μM) JAK2
Sequence (O60674 whole entry): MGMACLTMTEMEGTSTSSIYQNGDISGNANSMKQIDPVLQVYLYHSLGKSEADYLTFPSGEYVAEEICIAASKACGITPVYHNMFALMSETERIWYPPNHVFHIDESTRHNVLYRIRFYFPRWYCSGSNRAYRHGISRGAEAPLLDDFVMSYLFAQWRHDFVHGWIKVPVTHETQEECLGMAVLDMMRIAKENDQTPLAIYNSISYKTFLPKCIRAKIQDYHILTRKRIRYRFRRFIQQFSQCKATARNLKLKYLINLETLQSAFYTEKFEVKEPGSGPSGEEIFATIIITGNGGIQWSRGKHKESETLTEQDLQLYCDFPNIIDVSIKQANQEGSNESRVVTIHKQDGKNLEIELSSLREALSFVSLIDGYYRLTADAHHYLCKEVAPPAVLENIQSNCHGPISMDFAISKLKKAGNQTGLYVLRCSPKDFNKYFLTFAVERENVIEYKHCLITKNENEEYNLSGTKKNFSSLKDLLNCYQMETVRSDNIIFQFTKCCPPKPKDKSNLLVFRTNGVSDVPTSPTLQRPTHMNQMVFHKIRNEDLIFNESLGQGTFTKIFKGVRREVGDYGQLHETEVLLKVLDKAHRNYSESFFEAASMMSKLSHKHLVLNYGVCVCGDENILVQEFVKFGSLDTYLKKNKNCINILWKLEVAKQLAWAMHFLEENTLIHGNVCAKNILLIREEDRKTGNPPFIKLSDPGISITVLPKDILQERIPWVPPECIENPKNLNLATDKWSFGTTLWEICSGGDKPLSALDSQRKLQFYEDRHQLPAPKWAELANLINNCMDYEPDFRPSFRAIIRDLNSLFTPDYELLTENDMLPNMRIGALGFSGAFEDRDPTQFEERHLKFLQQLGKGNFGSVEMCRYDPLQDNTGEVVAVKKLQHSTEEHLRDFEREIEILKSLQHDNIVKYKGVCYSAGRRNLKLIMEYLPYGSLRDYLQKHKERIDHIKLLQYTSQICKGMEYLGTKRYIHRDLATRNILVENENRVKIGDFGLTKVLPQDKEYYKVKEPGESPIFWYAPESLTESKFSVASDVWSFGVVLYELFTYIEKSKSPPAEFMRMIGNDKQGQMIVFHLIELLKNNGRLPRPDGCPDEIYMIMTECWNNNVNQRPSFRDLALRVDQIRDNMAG

molecule: CC(=O)N1CCC(c2nc3c(-c4cnn(C(=O)NCC(F)(F)F)c4)ccnc3[nH]2)CC1
IC50: > 1 µM

molecule: CC(C)NC(=O)CCC(c1ccc(-n2cc(-c3ccnc4[nH]cnc34)cn2)nc1)C(F)(F)F (centres unmarked)
IC50: < 0.1 µM

molecule: CS(=O)(=O)N1CCC(NC(=O)N2CCN(c3ccnc4[nH]c(=O)[nH]c34)CC2)CC1
IC50: > 10 µM

molecule: CNC(=O)C[C@@H](c1ccc(-n2cc(-c3ccnc4[nH]cnc34)cn2)nc1)C(F)(F)F
IC50: < 0.5 µM

molecule: CC(C)N1CC(C(O)(c2ccc(-n3cc(-c4ccnc5[nH]cnc45)cn3)nc2)C(F)(F)F)C1 (centres unmarked)
IC50: 0.01 µM

May I ask what IC50 has been recorded for N#CC(NC(=O)n1cc(-c2ccnc3[nH]c(=O)[nH]c23)cn1)C1CC1 (centres unmarked) ?
0.031 µM

Quick one: CC1(C)CN(C(=O)n2cc(-c3ccnc4[nH]c(=O)[nH]c34)cn2)C1
> 1 µM

// same read-out, input: N#Cc1ccc(-n2cc(-c3ccnc4[nH]cnc34)cn2)nc1
> 1 µM
